System Under Test: HDAC3 (Homo sapiens, UniProt O15379)
Construct: purchased BPS Bioscience
Sequence (O15379 whole entry): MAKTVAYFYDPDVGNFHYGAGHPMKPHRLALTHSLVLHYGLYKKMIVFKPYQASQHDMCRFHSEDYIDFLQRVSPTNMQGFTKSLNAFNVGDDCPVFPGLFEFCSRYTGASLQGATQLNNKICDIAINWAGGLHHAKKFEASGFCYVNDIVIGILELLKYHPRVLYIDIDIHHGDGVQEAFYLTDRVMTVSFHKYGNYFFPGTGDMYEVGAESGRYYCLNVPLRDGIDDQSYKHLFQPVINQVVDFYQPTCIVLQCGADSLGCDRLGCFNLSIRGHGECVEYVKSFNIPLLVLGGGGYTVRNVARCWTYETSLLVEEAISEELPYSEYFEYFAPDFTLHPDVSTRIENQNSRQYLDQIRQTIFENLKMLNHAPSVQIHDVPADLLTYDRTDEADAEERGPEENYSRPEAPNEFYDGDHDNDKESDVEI
Sequence (Q9Y618 395-489 partner limits assumed): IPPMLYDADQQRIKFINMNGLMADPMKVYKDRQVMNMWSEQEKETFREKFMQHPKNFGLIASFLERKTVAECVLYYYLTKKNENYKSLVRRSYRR
Protocol Description: In vitro HDAC inhibition fluorescence assay, HDAC3
Format: biochemical
Condition Details: 10 nM; read-out: Inhibition Rate of HDAC3 (%)
Observation Type: inhibition at 0.01 µM (%)

[[record]]
compound = "CCCNNC(=O)C=Cc1ccc(CNC2Cc3ccccc3C2)cc1 [Compound 25e]"
observation_type = "inhibition at 0.01 µM"
val = 94.8

[[record]]
compound = "CCCNNC(=O)CCCCCCCCNC(=O)Cc1ccccc1 [Compound 14f]"
observation_type = "inhibition at 0.01 µM"
val = 3.2

[[record]]
compound = "CCCNNC(=O)c1ccc(C=CC(=O)NCCc2ccccc2)cc1 [Compound 9l]"
observation_type = "inhibition at 0.01 µM"
val = 78.1

[[record]]
compound = "CCCNNC(=O)CCCCCCC(=O)NCCc1ccccc1 [Compound 9e]"
observation_type = "inhibition at 0.01 µM"
val = 38.8

[[record]]
compound = "CCCNNC(=O)CCCCCCCC(=O)NCCc1ccccc1 [Compound 9f]"
observation_type = "inhibition at 0.01 µM"
val = 19.6

[[record]]
compound = "CCCNNC(=O)Cc1ccc(C(=O)NCCc2ccccc2)cc1 [Compound 9i]"
observation_type = "inhibition at 0.01 µM"
val = -0.8

[[record]]
compound = "CCCNNC(=O)CCCCCC(=O)NCCc1ccccc1 [Compound 9d]"
observation_type = "inhibition at 0.01 µM"
val = 21.2

[[record]]
compound = "CCCNNC(=O)C=Cc1ccc(C(=O)N2CCc3cc(Br)ccc3C2)cc1 [Compound 19c]"
observation_type = "inhibition at 0.01 µM"
val = 4.1

